# System Name: human CCR2 (Homo sapiens)
# Sequence (P41597 1-360 isoform P41597-2): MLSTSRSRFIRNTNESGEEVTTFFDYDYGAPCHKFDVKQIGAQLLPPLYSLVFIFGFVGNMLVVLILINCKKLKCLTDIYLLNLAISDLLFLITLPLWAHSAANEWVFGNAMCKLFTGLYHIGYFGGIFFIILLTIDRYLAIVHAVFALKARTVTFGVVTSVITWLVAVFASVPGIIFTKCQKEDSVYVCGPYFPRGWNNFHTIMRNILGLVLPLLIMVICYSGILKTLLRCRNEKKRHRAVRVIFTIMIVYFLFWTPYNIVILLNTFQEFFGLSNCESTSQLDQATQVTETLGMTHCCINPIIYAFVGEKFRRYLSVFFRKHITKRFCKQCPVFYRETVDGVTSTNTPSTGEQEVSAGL
# Assay Details: Functional Ca2+ release test (B-1)
# Measurement Conditions: Chem-1 cell line transfected with human CCR2; 50% inhibition of the MCP-1 effect, MCP-1 at EC50 (about 5 nM); in some cases means of several determinations
Measurement Name: IC50 (nM)

Worked cases, answers included:
[[record]]
compound = "CC(=O)Nc1ccc2c(-c3nc(C(F)(F)F)c(Oc4ccc(Cl)c(C(F)(F)F)c4)c(=O)[nH]3)noc2c1 [Example 209]"
recorded_value = 22

[[record]]
compound = "O=c1[nH]c(-c2cccc[n+]2[O-])nc(C(F)(F)F)c1Oc1ccc(Cl)c(Cl)c1 [Example 161]"
recorded_value = 2.3

[[record]]
compound = "O=c1[nH]c(-c2ncccc2Cl)nc(C(F)(F)F)c1Oc1ccc(F)c(F)c1 [Example 13]"
recorded_value = 56

[[record]]
compound = "O=c1[nH]c(-c2n[nH]c3ccccc23)nc(C(F)(F)F)c1Oc1ccc(Cl)c(C(F)(F)F)c1 [Example 140]"
recorded_value = 0.8

[[record]]
compound = "O=c1[nH]c(-c2ccc(Cl)cn2)nc(C(F)(F)F)c1Oc1ccc(Cl)c(C(F)(F)F)c1 [Example 195]"
recorded_value = 1.1


A: O=c1[nH]c(-c2ncccc2-c2ccccc2)nc(C(F)(F)F)c1Oc1ccc(Cl)c(Cl)c1 [Example 187]
B: COc1cccnc1-c1nc(C(F)(F)F)c(Oc2ccc(Cl)c(C(F)(F)F)c2)c(=O)[nH]1 [Example 40]
Among A and B , whose measured IC50 is the smaller figure? Reply briefly: the label of your chosen item.
B

====

# System Name: murine CCR2 (Mus musculus, UniProt P51683)
# Construct: host or cells: U2OS β-arrestin cell line
# Sequence (P51683 whole entry): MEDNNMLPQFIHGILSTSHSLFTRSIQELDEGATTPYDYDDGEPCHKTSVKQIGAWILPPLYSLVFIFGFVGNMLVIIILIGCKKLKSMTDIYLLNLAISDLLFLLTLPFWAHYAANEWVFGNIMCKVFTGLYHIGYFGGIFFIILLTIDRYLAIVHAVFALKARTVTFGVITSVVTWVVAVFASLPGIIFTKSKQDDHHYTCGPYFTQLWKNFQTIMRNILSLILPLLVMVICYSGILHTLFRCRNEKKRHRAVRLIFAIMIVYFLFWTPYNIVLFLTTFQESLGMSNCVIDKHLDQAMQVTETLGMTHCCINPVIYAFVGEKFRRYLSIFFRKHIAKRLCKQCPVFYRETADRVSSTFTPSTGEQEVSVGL
# Assay Details: Functional β-arrestin recruiting test with murine MCP-1 (B-2b)
# Type: cell-based
# Measurement Conditions: U2OS β-arrestin cell line transfected with murine CCR2; agonist murine MCP-1; in some cases means of several determinations
pIC50: −log10 of the molar value.
Measurement Name: pIC50

Here is how some compounds turned out for pIC50.
[[record]]
compound = "Nc1ccnc(-c2nc(C(F)(F)F)c(Oc3ccc(Cl)c(C(F)(F)F)c3)c(=O)[nH]2)c1 [Example 45]"
measurement_name = "pIC50"
recorded_value = 6.26

[[record]]
compound = "Nc1ccn(-c2nc(C(F)(F)F)c(Oc3ccc(Cl)c(Cl)c3)c(=O)[nH]2)n1 [Example 256]"
measurement_name = "pIC50"
recorded_value = 7.00

[[record]]
compound = "O=c1[nH]c(-c2cc[nH]n2)nc(C(F)(F)F)c1Oc1ccc(Cl)c(Cl)c1 [Example 49]"
measurement_name = "pIC50"
recorded_value = 7.92

[[record]]
compound = "CC(C)(C)Oc1cccc(-c2nc(C(F)(F)F)c(Oc3ccc(Cl)c(Cl)c3)c(=O)[nH]2)n1 [Example 146]"
measurement_name = "pIC50"
recorded_value = 5.46

[[record]]
compound = "O=c1[nH]c(-c2cc[nH]n2)nc(C(F)(F)F)c1Oc1ccc(Cl)c(C(F)(F)F)c1 [Example 65]"
measurement_name = "pIC50"
recorded_value = 8.32


P: O=c1[nH]c(-c2n[nH]c3ccccc23)nc(C(F)(F)F)c1Oc1ccc(Cl)c(C(F)(F)F)c1 [Example 140]
Q: Cn1nc(-c2nc(C(F)(F)F)c(Oc3ccc(Cl)c(C(F)(F)F)c3)c(=O)[nH]2)c2ccccc21 [Example 137]
Of P and Q , whose reported pIC50 is the larger number? Please respond with the label that marks your chosen entry.
P
(P: 7.12, Q: 6.48)
